Values were extracted from patent US12077503B2.

# Test system: Galium (catchweed bedstraw, Galium aparine)
# ASSAY NAME: Test A postemergence
# Type: in vivo
# CONDITIONS USED: 500 g ai/ha, postemergence; 0 to 100 scale, 0 no effect, 100 complete control
QUANTITY NAME: Plant response rating, Galium

Cc1cc(C2CN(C)C(=O)C2C(=O)Nc2ccccc2C(F)(F)F)ccc1F (stereo not drawn)    50
O=C1NCC(c2cccc(F)c2)C1C(=O)Nc1ccccc1C(F)(F)F (racemic)    30
CN1CC(c2cccc(OC(F)(F)C(F)F)c2)C(C(=O)Nc2ccccc2C(F)(F)F)C1=O (stereo not drawn)    60
CN1CC(c2ccc(F)cc2)C(C(=O)Nc2ccccc2F)C1=O (stereo not drawn)    50
COc1cccc(NC(=O)C2C(=O)NCC2c2cccc(OC(F)F)c2)c1F (stereo not drawn)    0
O=C1NCC(c2cccc(C#Cc3ccccc3)c2)C1C(=O)Nc1cccc(F)c1F (stereo not drawn)    0
CN1CC(c2ccc(F)cc2)C(C(=O)Nc2ccccc2S(C)(=O)=O)C1=O (stereo not drawn)    50
O=C1NCC(c2ccccc2-c2ccccc2)C1C(=O)Nc1ccccc1F (racemic)    0
CN1CC(c2ccc3c(c2)OC(F)(F)O3)C(C(=O)Nc2ccc(F)cc2F)C1=O (stereo not drawn)    70
Cc1cccc(NC(=O)C2C(=O)NCC2c2ccc(F)c(F)c2)c1F (stereo not drawn)    0
CS(=O)(=O)c1ccccc1NC(=O)C1C(=O)NCC1c1ccc(Br)cc1 (stereo not drawn)    50
O=C(Nc1ccccc1F)C1C(=O)N(c2ccccc2)CC1c1cccc(C(F)(F)F)c1 (stereo not drawn)    0

----------
# Test system: ragweed (common ragweed, Ambrosia elatior)
# ASSAY NAME: Test A postemergence
# Format: in vivo
# CONDITIONS USED: 500 g ai/ha, postemergence; 0 to 100 scale, 0 no effect, 100 complete control
Here, each record is paired with measured Plant response rating, Ragweed data.
QUANTITY NAME: Plant response rating, Ragweed

O=C1NCC(c2cccc(OC(F)F)c2)C1C(=O)Nc1cccc(OC(F)F)c1 (centres unmarked) [Compound 422]    0
CC(=O)Oc1cccc(C2CNC(=O)C2C(=O)Nc2cccc(F)c2F)c1 (centres unmarked) [Compound 432]    0
Cc1cccc(NC(=O)C2C(=O)NCC2c2ccc(F)c(F)c2)c1F (centres unmarked) [Compound 409]    0
Cc1cc(C2CN(C)C(=O)C2C(=O)Nc2ccccc2C(F)(F)F)ccc1F (centres unmarked) [Compound 406]    20
COc1cccc(NC(=O)C2C(=O)NCC2c2ccc(F)c(F)c2)c1F (centres unmarked) [Compound 416]    0

----------
# Tested on: ragweed (common ragweed, Ambrosia elatior)
# ASSAY NAME: Test A postemergence
# Format: in vivo
# CONDITIONS USED: Ambrosia artemisiifolia, post-emergence, 240 h, 125 g ai/ha, postemergence; visual injury after approximately 10 d; 0 to 100 scale (0 no effect, 100 complete control); read-out: Plant response rating, Ragweed
Here, each record is paired with measured pest or weed control at 125 g/ha data.
QUANTITY NAME: pest or weed control at 125 g/ha

CN1C[C@H](c2nccs2)[C@@H](C(=O)Nc2ccccc2F)C1=O    0%
Cc1ccc(NC(=O)[C@H]2C(=O)N(C)C[C@@H]2c2cc(F)cc(F)c2)c(F)c1F    20%
Cc1cc([C@H]2CN(C)C(=O)[C@@H]2C(=O)Nc2ccccc2F)cc(C)c1C    0%
CN1C[C@H](c2cc(F)cc(F)c2)[C@@H](C(=O)NC2CCc3ccccc32)C1=O (some centres unmarked)    0%
Cc1ccc([C@H]2CN(C)C(=O)[C@@H]2C(=O)Nc2cccc(F)c2F)c(F)c1    20%
O=C1NC[C@H](c2ccc(C3CC3)cc2)[C@H]1C(=O)Nc1ccccc1F    0%
CN1C[C@H](c2ccc(F)c(OC(F)(F)C(F)F)c2)[C@@H](C(=O)Nc2ccccc2F)C1=O    0%
CCc1cc(CC)cc([C@H]2CN(C)C(=O)[C@@H]2C(=O)Nc2cccc(F)c2F)c1    0%
CCc1cc(CC)cc([C@H]2CN(C)C(=O)[C@@H]2C(=O)Nc2ccccc2F)c1    0%
CN1C[C@H](c2cccc(S(C)(=O)=O)c2)[C@@H](C(=O)Nc2cccc(F)c2F)C1=O (racemic)    0%
Cc1cc(F)cc([C@H]2CN(C)C(=O)[C@@H]2C(=O)Nc2cccc(F)c2C#N)c1    0%
